Molecular target: T1, BAM3 extracellular domain (BAM3-ECD) (Arabidopsis thaliana, UniProt O65440 30-651)
T1 construct: Cloned in a modified pFastBac1 with an N-terminal azurocidin signal peptide for secretion; MALDI-TOF mass 94,586 Da; also called BAM3 LRR domain; BAM3 ectodomain; source: Trichoplusia ni Tnao38 cells, secreted, purified (Ni2+, StrepII, size-exclusion chromatography)
T1 sequence (looked up): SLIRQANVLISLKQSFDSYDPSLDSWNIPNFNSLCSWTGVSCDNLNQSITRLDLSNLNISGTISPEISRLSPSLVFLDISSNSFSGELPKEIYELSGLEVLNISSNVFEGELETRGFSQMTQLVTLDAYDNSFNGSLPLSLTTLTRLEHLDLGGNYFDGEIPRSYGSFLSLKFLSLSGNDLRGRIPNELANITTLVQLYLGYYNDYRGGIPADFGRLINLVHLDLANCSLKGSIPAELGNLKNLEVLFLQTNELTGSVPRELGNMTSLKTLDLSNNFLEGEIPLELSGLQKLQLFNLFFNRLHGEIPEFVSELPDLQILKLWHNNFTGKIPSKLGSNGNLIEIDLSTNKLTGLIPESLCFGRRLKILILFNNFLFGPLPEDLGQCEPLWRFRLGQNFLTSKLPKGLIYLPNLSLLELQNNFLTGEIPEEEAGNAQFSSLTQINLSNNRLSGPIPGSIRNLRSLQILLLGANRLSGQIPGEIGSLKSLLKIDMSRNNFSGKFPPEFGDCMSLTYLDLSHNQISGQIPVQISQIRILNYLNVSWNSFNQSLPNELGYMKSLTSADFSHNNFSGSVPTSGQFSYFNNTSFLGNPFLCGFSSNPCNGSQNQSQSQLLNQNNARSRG
Assay: ITC; peptide titrated (10 μl injections, 150 s intervals) into the BAM3 ectodomain in the cell; Nano ITC, 25°C, 20 mM sodium citrate pH 5, 150 mM NaCl
Details: both partners purified
Where no end group is shown, it is not given here. [ ]: non-standard residue; d: D form. Hyp = O=C(O)[C@@H]1C[C@@H](O)CN1
Listing: Kd of selected binders

Binder	Kd
RTV[Hyp]SG[Hyp]DPLHHH (CLAVATA3 (CLV3) mature CLE peptide of Arabidopsis, 13 residues as printed for the ITC; the ITC peptide is printed with three C-terminal histidines; source: synthetic peptide (Peptide Specialty Laboratories, Heidelberg)) [CLV3 peptide (ITC)]	~10 µM
RRVRRGSDPIHN (CLE45, mature 12-residue CLE peptide of Arabidopsis; also called synthetic CLE45 peptide; source: synthetic peptide (Peptide Specialty Laboratories, Heidelberg)) [CLE45 peptide]	~0.12 µM
